Biological target: Recombinant (1-346) HPK1 (h) (Homo sapiens)
Construct: Recombinant (1-346) HPK1 (h) is incubated with 8 mM MOPS pH 7.0
Sequence (Q92918 1-346): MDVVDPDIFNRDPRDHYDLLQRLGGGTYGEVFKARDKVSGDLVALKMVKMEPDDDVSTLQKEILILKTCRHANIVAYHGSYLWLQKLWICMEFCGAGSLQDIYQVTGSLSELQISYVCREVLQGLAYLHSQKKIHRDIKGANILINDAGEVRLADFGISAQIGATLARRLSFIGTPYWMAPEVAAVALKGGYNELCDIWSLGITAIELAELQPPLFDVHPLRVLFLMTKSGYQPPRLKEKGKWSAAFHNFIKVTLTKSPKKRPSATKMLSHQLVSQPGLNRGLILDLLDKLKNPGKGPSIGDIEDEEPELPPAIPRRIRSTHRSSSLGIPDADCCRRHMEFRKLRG
Experiment: HPK1 Human STE Kinase Enzymatic Radiometric Assay
Type: biochemical
Settings: read-out: HPK1 IC50 nM Range*
PROPERTY_LABEL: IC50

# COMPOUND, OBSERVED
records = [
    ("CN(C)Cc1cc(-c2cc(-c3cc4c(cc3F)C(=O)NCC4)c(N)nc2F)ccc1OCC1CC1", "11 to 100 nM"),
    ("CC(C)N1CC=C(c2ccc(-c3cc(-c4cc5c(cc4F)C(=O)NCC5)c(N)nc3F)cc2)CC1", "0.1 to 10 nM"),
    ("CN(C)Cc1nc(-c2cc(-c3ccc4c(=O)[nH]cc(F)c4c3)c(N)nc2F)ccc1N1CCOCC1", "0.1 to 10 nM"),
    ("Nc1nc(F)c(-c2ccc(S(=O)(=O)N3CCCC3)cc2)cc1-c1ccc2c(c1)CCNC2=O", "11 to 100 nM"),
    ("CC(C)N1CCN(c2ccc(-c3cc(-c4ccc5c(c4)CCNC5=O)c(N)nc3F)cc2)CC1", "0.1 to 10 nM"),
    ("COCCN(C)Cc1cc(-c2cc(-c3ccc4c(c3)CCNC4=O)c(N)nc2F)ccc1C1CCOCC1", "0.1 to 10 nM"),
    ("CC(C)[C@H]1CN(c2ccc(-c3cc(-c4ccc5c(c4)CCNC5=O)c(N)nc3F)cc2)CCO1", "11 to 100 nM"),
    ("Cc1c(N)cncc1-c1cc(-c2ccc3c(c2)CCNC3=O)c(N)nc1F [I-234, 2,2,2-trifluoroacetate]", "> 1000 nM"),
]
